From: ChEMBL document CHEMBL3045969

system: Rattus norvegicus; experiment: Inhibition of AChE in Charles Foster albino Rattus norvegicus (rat) assessed as hydrolysis of acetylthiocholine iodide per mg of protein in prefrontal cortex at 5 mg/kg, po qd for 7 days measured 1 hr post last dose on day 7 by spectrophotometry (reference value: […]/mg protein); assay type: functional
Consider the following compounds; for each one, report its Activity.
I only need the number, in nmol/min, no unit after it.

Input: Entry C/C(=N/c1ccncc1)c1ccc(O)cc1 : reported Activity = ?
Output: 39.33

Input: Try the compound COc1ccc(/C=N\c2ccncc2)cc1OC
Output: 36.5

Input: Try the compound c1ccc(C(=Nc2ccncc2)c2ccccc2)cc1
Output: 37

Input: Try the compound Oc1ccccc1/C=N\c1ccncc1
Output: 37.5

Input: Try the compound C(=N/c1ccncc1)/c1ccccc1
Output: 39

Input: Try the compound Oc1ccc(/C=N\c2ccncc2)c(O)c1
Output: 41

Input: Try the compound COc1ccc(/C=N\c2ccncc2)cc1
Output: 36

###

test system: Rattus norvegicus; assay: Inhibition of AChE in Charles Foster albino Rattus norvegicus (rat) assessed as hydrolysis of acetylthiocholine iodide per mg of protein in hypothalamus at 10 mg/kg, po qd for 7 days measured 1 hr post last dose on day 7 by spectrophotometry (reference value: […]/mg protein); format: functional
value-kind: Activity (nmol/min)
I only need the number, in nmol/min, no unit after it.

Input: Entry c1ccc(C(=Nc2ccncc2)c2ccccc2)cc1 : reported Activity = ?
Output: 29.67

Input: Try the compound COc1ccc(/C=N\c2ccncc2)cc1OC
Output: 30.5

Input: Try the compound Oc1ccccc1/C=N\c1ccncc1
Output: 30.5

Input: Try the compound C/C(=N/c1ccncc1)c1ccc(O)cc1
Output: 29.67

Input: Try the compound C(=N/c1ccncc1)/c1ccccc1
Output: 35.5

Input: Try the compound Oc1ccc(/C=N\c2ccncc2)c(O)c1
Output: 30

Input: Try the compound COc1ccc(/C=N\c2ccncc2)cc1
Output: 30.83

###

system: Rattus norvegicus; test: Acute toxicity in Charles Foster albino Rattus norvegicus (rat) assessed as mortality at >35 mg/kg of body weight, po measured up to 24 hr; format: organism-based; settings: in vivo
value-kind: Activity

Example cases with answers are listed next.
Oc1ccc(/C=N\c2ccncc2)c(O)c1 ... Non-toxic
c1ccc(C(=Nc2ccncc2)c2ccccc2)cc1 ... Non-toxic
COc1ccc(/C=N\c2ccncc2)cc1OC ... Non-toxic
C/C(=N/c1ccncc1)c1ccc(O)cc1 ... Non-toxic
COc1ccc(/C=N\c2ccncc2)cc1 ... Non-toxic

Input: Entry Oc1ccccc1/C=N\c1ccncc1 : reported Activity = ?
Output: Non-toxic

Input: Try the compound C(=N/c1ccncc1)/c1ccccc1
Output: Non-toxic

###

Consider the following molecules; for each one, report its Activity.
tested on: Rattus norvegicus; experiment: Inhibition of AChE in Charles Foster albino Rattus norvegicus (rat) assessed as hydrolysis of acetylthiocholine iodide per mg of protein in prefrontal cortex at 10 mg/kg, po qd for 7 days measured 1 hr post last dose on day 7 by spectrophotometry (reference value: […]/mg protein); assay type: functional
I only need the number, in nmol/min, no unit after it.

Input: Param readout= Activity; system= Rattus norvegicus; entry= COc1ccc(/C=N\c2ccncc2)cc1OC ; returns value.
Output: 33.17

Input: Try the molecule Oc1ccccc1/C=N\c1ccncc1
Output: 33

Input: Try the molecule C(=N/c1ccncc1)/c1ccccc1
Output: 33.83

Input: Try the molecule COc1ccc(/C=N\c2ccncc2)cc1
Output: 31

Input: Try the molecule c1ccc(C(=Nc2ccncc2)c2ccccc2)cc1
Output: 32.83

Input: Try the molecule C/C(=N/c1ccncc1)c1ccc(O)cc1
Output: 33

Input: Try the molecule Oc1ccc(/C=N\c2ccncc2)c(O)c1
Output: 30.5

###

Consider the following compounds; for each one, report its Activity.
tested on: Rattus norvegicus; assay: Inhibition of AChE in Charles Foster albino Rattus norvegicus (rat) assessed as hydrolysis of acetylthiocholine iodide per mg of protein in hippocampus at 10 mg/kg, po qd for 7 days measured 1 hr post last dose on day 7 by spectrophotometry (reference value: […]/mg protein); assay type: functional
I only need the number, in nmol/min, no unit after it.

Input: Entry COc1ccc(/C=N\c2ccncc2)cc1 : reported Activity = ?
Output: 36.5

Input: Try the compound COc1ccc(/C=N\c2ccncc2)cc1OC
Output: 35.83

Input: Try the compound c1ccc(C(=Nc2ccncc2)c2ccccc2)cc1
Output: 37.5

Input: Try the compound Oc1ccccc1/C=N\c1ccncc1
Output: 36.83

Input: Try the compound C(=N/c1ccncc1)/c1ccccc1
Output: 36.83

Input: Try the compound C/C(=N/c1ccncc1)c1ccc(O)cc1
Output: 36.5

Input: Try the compound Oc1ccc(/C=N\c2ccncc2)c(O)c1
Output: 34.83

###

system: Rattus norvegicus; assay: Cognition enhancing activity in Charles Foster albino Rattus norvegicus (rat) assessed as transfer latency time at 5 mg/kg, po qd for 7 days measured 1 hr post last dose on day 7 by elevated plus maze test; type: functional
value-kind: Time (s)
I only need the number, in s, no unit after it.

Input: Param readout= Time; system= Rattus norvegicus; entry= Oc1ccccc1/C=N\c1ccncc1 ; returns value.
Output: 59.83

Input: Try the compound c1ccc(C(=Nc2ccncc2)c2ccccc2)cc1
Output: 49.17

Input: Try the compound COc1ccc(/C=N\c2ccncc2)cc1
Output: 57.83

Input: Try the compound C/C(=N/c1ccncc1)c1ccc(O)cc1
Output: 59.83

Input: Try the compound Oc1ccc(/C=N\c2ccncc2)c(O)c1
Output: 60.33

Input: Try the compound C(=N/c1ccncc1)/c1ccccc1
Output: 59.67

Input: Try the compound COc1ccc(/C=N\c2ccncc2)cc1OC
Output: 58
